tested on: OVCAR-8 ovarian; assay: NCI-60 one-dose screen, 48 h; details: 10 µM unless noted
About 83,000 compounds went through this panel and 20% of them were active in at least one assay; those are over-represented in the sample as a whole. Activity calls are given as the source filed them. How the source made its calls: active means growth percent below 10; inactive means the rest.
Your reply should match one of these outcome classes. true = active, false = inactive

[in] Give the logged outcome of this assay for the following compound: COc1cccc(-c2ccc(/C=N/NC(=O)c3[nH]c4ccc(Br)cc4c3-c3ccccc3)s2)c1
[out] true

---

test system: SNB-19 CNS; experiment: NCI-60 one-dose screen, 48 h (100 = growth as untreated, 0 = no growth, -100 = all killed); details: 10 µM unless noted
This is part of a sample that, as a whole, favours compounds with a hit. Of some 83,000 tested, about 20% had one in any assay.
Measured growth of individual entries
The answer is to be given in %; state only the numeric part.

molecule	units	growth
COc1cc(C2CC(c3ccc(S(=O)(=O)NCCNc4nc(N(C)C)nc(N5CCOCC5)n4)cc3)=Nc3c(N)nc(N)nc3N2)cc(OC)c1OC (stereo unspecified)	%	96.2
Cc1ccc(C(=O)Nc2cccc(C(=O)NC(=S)Nc3ccc(S(N)(=O)=O)cc3)c2)cc1	%	83.1
Cc1cccc(C)c1Nc1nnc(-c2c[nH]c3ccccc23)o1	%	97.5
CS(=O)(=O)Nc1cncc(-c2ccc3ncnc(NCc4ccccc4)c3c2)c1	%	39
Cc1cccc(NCC(=O)N2CCN(c3ncnc4c3cnn4-c3ccccc3)CC2)c1	%	88.9

[in] Quick one: give measured growth for Oc1ccc(F)c(Nc2nc(SCCN3CCOCC3)nc3c2cnn3CC(Cl)c2ccc(Br)cc2)c1 (stereo unspecified)
[out] 46.1

[in] Please report the measured growth for COc1ccc(-n2c(NC(=O)N3CCN(C)CC3)c(C#N)c3ccccc32)cc1
[out] 52.9

[in] Answer with the recorded growth of CCCCCCCOc1ccc(S(=O)(=O)Nc2ccc(C)c(F)c2C(=O)O)cc1 only.
[out] 89.4
